Biological target: Polθ (truncated Polθ-Hel protein containing the helicase domain 67-894) (Homo sapiens)
Construct: a truncated Polθ protein (Polθ-Hel containing the helicase domain (67-894))
Sequence (O75417 67-894): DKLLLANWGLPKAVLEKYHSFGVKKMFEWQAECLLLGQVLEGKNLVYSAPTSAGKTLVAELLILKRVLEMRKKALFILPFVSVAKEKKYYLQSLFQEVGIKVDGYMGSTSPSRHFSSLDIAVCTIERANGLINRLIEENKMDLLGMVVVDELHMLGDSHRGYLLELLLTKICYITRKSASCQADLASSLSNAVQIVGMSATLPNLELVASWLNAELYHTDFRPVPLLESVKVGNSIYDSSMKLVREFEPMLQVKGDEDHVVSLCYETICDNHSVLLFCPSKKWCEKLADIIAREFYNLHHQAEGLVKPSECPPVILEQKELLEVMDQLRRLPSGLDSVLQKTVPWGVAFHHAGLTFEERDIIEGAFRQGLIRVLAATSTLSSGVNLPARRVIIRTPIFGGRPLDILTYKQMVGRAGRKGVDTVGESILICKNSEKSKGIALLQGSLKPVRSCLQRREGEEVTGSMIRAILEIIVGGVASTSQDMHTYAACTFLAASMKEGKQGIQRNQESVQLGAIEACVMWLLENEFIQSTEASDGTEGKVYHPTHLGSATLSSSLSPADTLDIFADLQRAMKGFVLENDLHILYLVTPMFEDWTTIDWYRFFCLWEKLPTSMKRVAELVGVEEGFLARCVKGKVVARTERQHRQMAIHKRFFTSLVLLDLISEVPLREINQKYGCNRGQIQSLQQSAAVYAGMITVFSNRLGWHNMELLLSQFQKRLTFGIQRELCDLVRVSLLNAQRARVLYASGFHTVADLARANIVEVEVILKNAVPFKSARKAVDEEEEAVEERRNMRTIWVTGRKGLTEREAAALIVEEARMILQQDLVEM
Test: Polθ ATPase assay (Biological Assay 1, ADP-Glo luminescence)
Details: Table B (Part B compounds); same assay as Biological Assay 1
property measured: IC50

In: Param item = `COc1cnc(Cl)cc1-c1cn(C)c(=O)cc1C(=O)Nc1nc2cnc(N3CCC(O)CC3)nc2s1` ; retrieve measured IC50.
Out: < 100 nM
